Ref: patent US20250388604A1

Can you tell me activity at 10 µM for the items I'm about to list?
test system: m-IMCD3 cells; test: Inhibition of PGE2-stimulated in vitro cyst formation in m-IMCD3 cells; assay type: cell-based, mouse; conditions: Mus musculus, mIMCD3, 144 h, 10 μM; mean cyst area, 100% for (DMSO + PGE2) and 0% for DMSO control; 6 days of culture; read-out: % Cyst area after incubation with 10 μM test compound
Give bare numbers, in %.

COc1cc(F)ccc1CCC(=O)N1CCc2nc(N3C4CCC3CNC4)sc2C1	9
O=C(Cc1ccnc(F)c1)N1CCc2nc(N3C4CCC3CNC4)sc2C1	-7
O=C(N1CCc2nc(N3C4CCC3CNC4)sc2C1)C(F)(F)C1CCCC1	0
O=C(CC1CCCC1)N1Cc2sc(N3C4CCC3CNC4)nc2C2(CCOCC2)C1	40

Value sought for every listed compound: activity at 10 µM.
1. CN1CCN(c2nc3c(s2)CN(C(=O)CC2CCC(F)(F)CC2)CC3(C)C)CC1
2. O=C(N1CCc2nc(N3C4CCC3CNC4)sc2C1)C1(c2ccccc2)CC1
3. CCC(C)(C)C(=O)N1CCc2nc(N3C4CCC3CNC4)sc2C1
4. CC(C)C(O)C(=O)N1CCc2nc(N3C4CCC3CNC4)sc2C1 (stereo not shown)
5. CC1(C)CCC(C(=O)N2CCc3nc(N4C5CCC4CNC5)sc3C2)C1 (stereo not shown)

0
8
-13
3
8

For every item below, please supply its activity at 10 µM.
1. COC1(CC(=O)N2CCc3nc(N4C5CCC4CNC5)sc3C2)CCCC1
2. CC(C)(Oc1ccccc1)C(=O)N1CCc2nc(N3C4CCC3CNC4)sc2C1
3. CC1(C)CCN(C(=O)N2CCc3nc(N4C5CCC4CNC5)sc3C2)C1
4. O=C(CC1CCC2(CC1)COC2)N1CCc2nc(N3C4CCC3CNC4)sc2C1

1. -4
2. 1
3. 0
4. -3

Quick batch: activity at 10 µM for everything below.
1. O=C(COc1ccc(F)cc1)N1CCn2nc(N3C4CCC3CNC4)cc2C1
2. O=C(N1CCn2nc(N3C4CCC3CNC4)cc2C1)C(F)(F)c1ccccc1
3. O=C(Cc1ccc(F)cc1F)N1CCc2nc(N3C4CCC3CNC4)sc2C1
4. O=C(NC1CCC(F)(F)CC1)N1CCc2nc(N3C4CCC3CNC4)sc2C1
5. O=C(N1CCCC1)N1CCc2nc(N3C4CCC3CNC4)sc2C1

1: -3; 2: -10; 3: 13; 4: -3; 5: 2

What activity at 10 µM value was documented for this compound, O=C(CC1CCCC1)N1CCc2nc(N3C4CCC3CNC4)sc2C1 ?
-5
